Test system: human PBMCs
Experiment: Human PBMC cytokine response assay (IFN-γ and IFN-α in cell-free medium by ELISA), with or without cPLGA
Format: cell-based
Conditions: donor 28065; 20 ug/ml, 24 h; + PLGA = premixed with 100 μg/ml cPLGA
Strand notation (5' to 3'): a small letter for the sugar, then the base; units joined by * are phosphorothioate-linked, units joined directly phosphodiester-linked; [ ] holds rarer units or linkages, { } end groups; capitals alone tell only the bases. d = 2'-deoxy (DNA)
Response field label: string, one of yes (1) (IFN-α (pg/ml) 28065 strictly below 50 pg/mL) or no (0).

substance	label_value
5′-TCGTCG-3′-HEG-5′-ACGTTCG-3′-HEG-5′-AGATGAT-3′ [Compound C-10]	no (0)
5′-TCGTCG-3′-abasic-5′-ACGTTCG-3′-abasic-5′-AGATGAT-3′ [Compound C-20]	yes (1)
5′-TGACTGTGAACCTTAGAGATGA-3′ (SEQ ID NO: 3) (dT*dG*dA*dC*dT*dG*dT*dG*dA*dA*dC*dC*dT*dT*dA*dG*dA*dG*dA*dT*dG*dA) [Compound P-7, negative control, reference compound]	yes (1)

(Q) Hello, I'm reviewing records and need to know if IFN-α (pg/ml) 28065 of 5′-TCGTCG-3′-HEG-5′-AACGTT-3′-HEG-5′-AGATGAT-3′ [Compound C-23] is below 50 pg/mL. Could you check?
(A) no (0)

(Q) Is IFN-α (pg/ml) 28065 strictly under 50 pg/mL for the entry 5′-TGCTGC-3′-HEG-5′-AGCTTGC-3′-HEG-5′-AGATGAT-3′ [Compound M-1, reference compound] ?
(A) yes (1)

====

Test system: human PBMCs
Experiment: Human PBMC cytokine response assay (IFN-γ and IFN-α in cell-free medium by ELISA), with or without cPLGA
Format: cell-based
Details: Table 10; donor 28045
Strand notation (5' to 3'): a small letter for the sugar, then the base; units joined by * are phosphorothioate-linked, units joined directly phosphodiester-linked; [ ] holds rarer units or linkages, { } end groups; capitals alone tell only the bases. d = 2'-deoxy (DNA)
Overview of reported IFN-α across a group of substances:
Lab book: enter the figure in pg/mL, no units written.

Answered cases to consult:
substance	IFN-α (pg/mL)
5′-TCGTCG-3′-HEG-5′-TCGTCG-3′-HEG-5′-TCGTCG-3′ [Compound C-22]	30
5′-TCGTCGA-3′-HEG-5′-TCGTCGA-3′-HEG-5′-TCGTCGA-3′ [Compound C-21]	15
5′-TCGAGAT-3′-HEG-5′-TCGAGAT-3′-HEG-5′-TCGAGAT-3′ [Compound C-45]	14
5′-CGTTCGA-3′-HEG-5′-CGTTCGA-3′-HEG-5′-CGTTCGA-3′ [Compound C-52]	48

Recorded IFN-α (substance 5′-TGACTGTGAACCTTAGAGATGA-3′ (SEQ ID NO: 3) (dT*dG*dA*dC*dT*dG*dT*dG*dA*dA*dC*dC*dT*dT*dA*dG*dA*dG*dA*dT*dG*dA) [Compound P-7, negative control, reference compound] ): 20

====

Test system: human PBMCs
Experiment: Human PBMC cytokine response assay (IFN-γ and IFN-α in cell-free medium by ELISA), with or without cPLGA
Assay type: cell-based
Settings: donor 28065; 20 ug/ml, 24 h; + PLGA = premixed with 100 μg/ml cPLGA
experimental_endpoint: IFN-α (pg/ml) 28065 (pg/mL)
Answer in pg/mL, number only, no unit symbol.

Answered examples (3):
substance	IFN-α (pg/ml) 28065 (pg/mL)
5′-TCGTCG-3′-TEG-5′-ACGTTCG-3′-TEG-5′-AGATGAT-3′ [Compound C-18]	51
5′-ACGTTCG-3′ [Compound P-3, reference compound]	0
5′-TCGTCG-3′-HME-5′-ACGTTCG-3′-HME-5′-AGATGAT-3′ [Compound C-25]	11

We next turn to a different substance, shown below.
Record 5′-TCGTCGA-3′-HEG-5′-ACGTTCG-3′-HEG-5′-AGATGAT-3′ [Compound C-8] ; system human PBMCs; IFN-α (pg/ml) 28065 = 123
